Biological target: UniProtKB Q9NUW8
Sequence (Q9NUW8 whole entry): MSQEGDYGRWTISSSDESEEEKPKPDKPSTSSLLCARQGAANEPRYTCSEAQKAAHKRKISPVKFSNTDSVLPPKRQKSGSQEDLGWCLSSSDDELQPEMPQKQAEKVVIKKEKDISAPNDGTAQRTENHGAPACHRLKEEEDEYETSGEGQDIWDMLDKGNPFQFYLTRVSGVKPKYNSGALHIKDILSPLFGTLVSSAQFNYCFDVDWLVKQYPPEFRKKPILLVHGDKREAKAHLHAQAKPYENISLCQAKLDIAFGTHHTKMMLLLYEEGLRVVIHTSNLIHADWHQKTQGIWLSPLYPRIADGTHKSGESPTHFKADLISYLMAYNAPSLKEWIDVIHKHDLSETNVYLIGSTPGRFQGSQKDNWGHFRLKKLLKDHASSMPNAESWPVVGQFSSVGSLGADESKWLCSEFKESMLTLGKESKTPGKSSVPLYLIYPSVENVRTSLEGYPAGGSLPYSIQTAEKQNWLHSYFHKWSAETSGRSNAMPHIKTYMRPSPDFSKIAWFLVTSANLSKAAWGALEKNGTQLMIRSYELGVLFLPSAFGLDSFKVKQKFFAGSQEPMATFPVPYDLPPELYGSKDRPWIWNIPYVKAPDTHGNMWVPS
Experiment: Gel-based assay measuring the inhibition of recombinant Tdp1;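 further: 5′-32P-labeled single-stranded DNA with 3′-phosphotyrosine incubated with 5 pM enzyme for 15 min at room temperature, inhibition seen as loss of 3′-phosphate product band by densitometry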
Type: biochemical
pIC50: −log10 of the molar value.
Kindly state pIC50 for each of the entries shown.

Look over these answered cases.
# molecule, pIC50
records = [
    ("COC(=O)CCC(=O)Nc1ccc2c3c(n(CCCN)c(=O)c2c1)-c1ccccc1C3=O", "3.95 to 4.43"),
    ("CCOC(=O)CNc1ccc2c3c(n(C)c(=O)c2c1)-c1ccccc1C3=O", "< 3.95"),
    ("COC(=O)CCCCC(=O)Nc1ccc2c3c(n(C)c(=O)c2c1)-c1ccccc1C3=O", "< 3.95"),
]

# batch: return pIC50 for each of the 3 molecules below
1. COC(=O)CCC(=O)Nc1ccc2c3c(n(C)c(=O)c2c1)-c1ccccc1C3=O
2. COC(=O)CC(=O)Nc1ccc2c3c(n(C)c(=O)c2c1)-c1ccccc1C3=O
3. Cl.NCCCn1c2c(c3ccc(NC(=O)CCC(=O)O)cc3c1=O)C(=O)c1ccccc1-2 [Compound 34 of (B), Hydrochloride]

[A]
< 3.95
< 3.95
< 3.95

Measured values drawn from patent US8912213B2 for this set.
